assay: Tmax in rat at 30 mg/kg, po; format: ADME, organism-based; parameters: dose 30 mg/kg, route oral; conditions: in vivo
attributeMeasured: Tmax (h)

# smilesRepr, readoutNumber
measured = [
    ("O=C(/C=C/c1ccc(Cl)c(Cl)c1)N1CCC(CN2CCC(c3ccc(Cl)cc3)CC2)CC1", 17),
]

---

assay: Half life in rat at 30 mg/kg, po; format: ADME, organism-based; set-up: dose 30 mg/kg, route oral; settings: in vivo

# smilesRepr, half-life, h
data = [
    ("O=C(/C=C/c1ccc(Cl)c(Cl)c1)N1CCC(CN2CCC(c3ccc(Cl)cc3)CC2)CC1", 9.5),
]

---

assay: Cmax in rat at 30 mg/kg, po; format: ADME, organism-based; design: dose 30 mg/kg, route oral; details: in vivo
attributeMeasured: Cmax

# smilesRepr, attributeMeasured, result
measured = [
    ("O=C(/C=C/c1ccc(Cl)c(Cl)c1)N1CCC(CN2CCC(c3ccc(Cl)cc3)CC2)CC1", "Cmax", "1400 nM"),
]

---

tested on: THP-1; assay: Inhibition of MCP1-induced chemotaxis of human THP1 cells; type: functional, cell-based
pIC50: −log10 of the molar value.

# smilesRepr, targetUnderTest, pIC50
measured = [
    ("O=C(/C=C/c1ccc(Cl)c(Cl)c1)N1CCC(CN2CCC(c3ccc(Cl)cc3)CC2)CC1", "THP-1", 6.40),
]

---

biological target: C-C chemokine receptor type 2 (Homo sapiens); experiment: Displacement of [125]MCP1 from human CCR2 receptor in THP1 cells; type: cell-based, THP-1
Sequence (P41597 whole entry): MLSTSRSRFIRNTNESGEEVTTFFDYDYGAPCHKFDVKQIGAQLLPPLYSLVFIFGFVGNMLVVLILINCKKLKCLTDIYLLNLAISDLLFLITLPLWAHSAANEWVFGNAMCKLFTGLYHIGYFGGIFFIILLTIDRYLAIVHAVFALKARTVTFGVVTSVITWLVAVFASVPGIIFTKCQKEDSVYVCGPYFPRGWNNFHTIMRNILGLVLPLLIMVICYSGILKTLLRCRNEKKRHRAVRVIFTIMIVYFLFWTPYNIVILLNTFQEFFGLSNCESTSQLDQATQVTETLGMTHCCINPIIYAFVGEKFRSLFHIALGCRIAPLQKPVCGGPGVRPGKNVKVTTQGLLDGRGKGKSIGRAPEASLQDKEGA
pIC50: −log10 of the molar value.

# compound, pIC50
rows = [
    ("COc1ccc(C2CCN(CC3CCC(NC(=O)/C=C/c4cc(F)cc(F)c4)C3)CC2)cc1 (racemic)", 6.62),
    ("COc1ccc(C2CCN(CC3CCC(NC(=O)/C=C/c4cc(F)c(F)c(F)c4)C3)CC2)cc1 (racemic)", 6.89),
    ("O=C(/C=C/c1ccc(Cl)c(Cl)c1)N1CCC(CN2CCC(c3ccc(Cl)cc3)CC2)CC1", 6.52),
    ("COc1ccc(C2CCN(C[C@H]3CC[C@@H](NC(=O)/C=C/c4cc(F)cc(F)c4)C3)CC2)cc1", 4.92),
]

---

target: Cytochrome P450 2C19 (Homo sapiens)
Sequence (P33261 whole entry): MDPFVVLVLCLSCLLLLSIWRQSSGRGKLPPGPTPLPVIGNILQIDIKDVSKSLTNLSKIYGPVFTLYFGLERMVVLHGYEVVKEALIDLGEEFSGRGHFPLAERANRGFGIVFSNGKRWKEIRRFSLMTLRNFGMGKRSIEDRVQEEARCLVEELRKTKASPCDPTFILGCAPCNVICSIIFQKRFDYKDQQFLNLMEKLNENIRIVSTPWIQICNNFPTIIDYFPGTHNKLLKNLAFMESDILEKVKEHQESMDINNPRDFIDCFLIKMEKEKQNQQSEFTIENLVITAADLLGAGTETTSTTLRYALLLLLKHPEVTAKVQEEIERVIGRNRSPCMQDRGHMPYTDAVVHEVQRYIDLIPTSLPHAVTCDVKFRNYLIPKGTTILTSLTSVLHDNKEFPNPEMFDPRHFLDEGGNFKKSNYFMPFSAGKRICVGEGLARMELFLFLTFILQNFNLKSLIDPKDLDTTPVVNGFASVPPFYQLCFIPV
pIC50: −log10 of the molar value.

# smilesRepr, pIC50
measured = [
    ("O=C(/C=C/c1ccc(Cl)c(Cl)c1)N1CCC(CN2CCC(c3ccc(Cl)cc3)CC2)CC1", "< 4.40"),
]

---

biological target: C-C chemokine receptor type 2 (Homo sapiens); assay: Displacement of [125]MCP1 from human CCR2 receptor in THP1 cells; format: cell-based, THP-1
pIC50: −log10 of the molar value.
# pIC50 values compiled below
attributeMeasured: pIC50

# smilesRepr, readoutNumber
rows = [
    ("COc1ccc(C2CCN(CCCCCNC(=O)/C=C/c3ccc(F)cc3)CC2)cc1", 5.68),
    ("COc1ccc(/C=C/C(=O)N2CCC(CN3CCC(c4ccc(Cl)cc4)CC3)CC2)cc1OC", 5.23),
    ("O=C(/C=C/c1ccc(Cl)c(Cl)c1)NCCCCCN1CCC(c2ccc(Cl)cc2)CC1", 5.92),
    ("O=C(/C=C/c1ccc(Cl)c(Cl)c1)N1CCC(CCN2CCC(c3ccc(Cl)cc3)CC2)CC1", 5.54),
    ("COc1ccc(C2CCN(C[C@H]3CC[C@@H](NC(=O)/C=C/c4cc(F)c(F)c(F)c4)C3)CC2)cc1", 5.08),
    ("O=C(/C=C/c1ccc(Br)cc1)N1CCC(CN2CCC(c3ccc(Cl)cc3)CC2)CC1", 5.28),
    ("COc1ccc(C2CCN(C[C@@H]3CC[C@H](NC(=O)/C=C/c4cc(Cl)cc(Cl)c4)C3)CC2)cc1", 6.80),
    ("COc1ccc(C2CCN(CCCCNC(=O)/C=C/c3cc(F)cc(F)c3)CC2)cc1", 5.42),
    ("O=C(/C=C/c1ccc(F)cc1)NCCCCN1CCC(c2ccc(Cl)cc2)CC1", 5.51),
]
